System: CEM-SS
Assay: Inhibition of cytopathic effect of HIV-1 RT containing the specified mutation Y181C in CEM-SS cells.
Assay type: functional, cell-based, Homo sapiens
recorded endpoint: EC50 (µM)

>>> reported_measurement("COC(=O)CCCC=C(c1cc(Br)c(OC)c(C(=O)OC)c1)c1cc(Br)c(OC)c(C(=O)OC)c1")
6.13
